Documented Human binding across a set of binders
molecular target: human collagen type I (acid soluble, extracted from placenta, Sigma C7774) (human) (UniProt P02452); assay: dried collagen assay, 5 uM each
Sequence (P02452 162-1218 limits assumed, chain 1 of 2): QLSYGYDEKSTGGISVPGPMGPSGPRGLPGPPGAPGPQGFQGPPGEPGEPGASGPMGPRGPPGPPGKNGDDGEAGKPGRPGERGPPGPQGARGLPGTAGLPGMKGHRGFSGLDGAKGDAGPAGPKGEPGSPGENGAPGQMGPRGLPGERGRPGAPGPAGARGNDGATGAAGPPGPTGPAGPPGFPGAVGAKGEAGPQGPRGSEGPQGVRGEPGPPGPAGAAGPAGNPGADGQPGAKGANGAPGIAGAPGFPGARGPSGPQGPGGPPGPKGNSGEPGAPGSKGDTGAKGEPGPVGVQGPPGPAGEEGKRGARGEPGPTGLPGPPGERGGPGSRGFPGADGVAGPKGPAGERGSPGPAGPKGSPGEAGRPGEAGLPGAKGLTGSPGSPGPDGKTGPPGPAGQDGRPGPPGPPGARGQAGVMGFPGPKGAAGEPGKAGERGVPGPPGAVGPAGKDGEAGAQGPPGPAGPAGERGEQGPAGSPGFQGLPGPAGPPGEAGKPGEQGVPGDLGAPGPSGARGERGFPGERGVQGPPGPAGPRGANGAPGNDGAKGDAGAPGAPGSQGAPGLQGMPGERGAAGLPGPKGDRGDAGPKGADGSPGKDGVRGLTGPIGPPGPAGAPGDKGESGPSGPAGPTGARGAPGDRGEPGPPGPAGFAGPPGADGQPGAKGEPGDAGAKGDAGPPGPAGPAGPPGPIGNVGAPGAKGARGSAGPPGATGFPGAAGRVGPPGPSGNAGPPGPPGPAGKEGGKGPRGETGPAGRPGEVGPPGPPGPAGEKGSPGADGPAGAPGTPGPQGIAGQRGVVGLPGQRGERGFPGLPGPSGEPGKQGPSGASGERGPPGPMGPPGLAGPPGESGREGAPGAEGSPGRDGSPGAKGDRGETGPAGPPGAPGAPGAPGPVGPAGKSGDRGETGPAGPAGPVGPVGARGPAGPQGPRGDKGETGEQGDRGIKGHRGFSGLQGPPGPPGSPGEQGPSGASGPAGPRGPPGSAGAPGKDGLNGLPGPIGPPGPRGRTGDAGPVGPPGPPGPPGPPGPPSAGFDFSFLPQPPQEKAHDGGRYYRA
Sequence (P08123 80-1119 limits assumed, chain 2 of 2, further chain): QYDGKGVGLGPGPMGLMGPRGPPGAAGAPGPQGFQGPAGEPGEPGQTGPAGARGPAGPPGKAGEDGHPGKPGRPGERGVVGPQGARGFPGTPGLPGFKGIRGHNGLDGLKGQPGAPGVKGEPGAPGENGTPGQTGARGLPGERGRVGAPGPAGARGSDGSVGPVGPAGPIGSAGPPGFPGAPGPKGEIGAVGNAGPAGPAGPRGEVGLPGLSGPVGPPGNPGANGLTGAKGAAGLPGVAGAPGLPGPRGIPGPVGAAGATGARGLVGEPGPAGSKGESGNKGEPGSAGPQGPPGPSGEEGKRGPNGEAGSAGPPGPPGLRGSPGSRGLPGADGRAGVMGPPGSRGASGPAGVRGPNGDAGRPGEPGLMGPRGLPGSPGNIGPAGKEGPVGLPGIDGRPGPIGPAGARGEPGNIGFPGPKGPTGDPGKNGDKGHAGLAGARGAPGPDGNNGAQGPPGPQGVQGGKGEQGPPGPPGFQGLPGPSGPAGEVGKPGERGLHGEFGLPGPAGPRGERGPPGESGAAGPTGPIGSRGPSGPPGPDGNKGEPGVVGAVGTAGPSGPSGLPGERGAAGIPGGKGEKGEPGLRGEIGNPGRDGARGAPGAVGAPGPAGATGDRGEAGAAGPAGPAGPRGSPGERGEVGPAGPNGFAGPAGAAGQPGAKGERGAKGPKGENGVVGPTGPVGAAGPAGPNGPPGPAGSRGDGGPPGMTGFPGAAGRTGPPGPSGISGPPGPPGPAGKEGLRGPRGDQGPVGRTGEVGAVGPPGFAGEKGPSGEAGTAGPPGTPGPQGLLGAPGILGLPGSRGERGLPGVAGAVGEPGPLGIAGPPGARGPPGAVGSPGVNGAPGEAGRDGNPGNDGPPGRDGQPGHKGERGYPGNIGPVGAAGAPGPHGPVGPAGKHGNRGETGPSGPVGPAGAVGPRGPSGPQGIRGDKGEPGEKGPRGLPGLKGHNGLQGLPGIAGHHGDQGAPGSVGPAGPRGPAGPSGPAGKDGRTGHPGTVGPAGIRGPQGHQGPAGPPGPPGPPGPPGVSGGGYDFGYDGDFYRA
Bridge positions count the residues as written; N and C are the ends. Square brackets hold non-standard residues; d marks the D form. Ends that are not written are not given here. Cha = N[C@@H](CC1CCCCC1)C(=O)O; GdT = GdDTPA-thiourea
A complete answer gives the number and then names the unit.

GQWHCTT[Cha]FPHHYCLYG (disulfide 5-14 (inferred)) [Compound ID 918]    19%

Qu. Give its Human binding value. Item: GDWHCTTLFPHHYCLYG [Compound ID 910]
Ans. 13%

Qu. Give its Human binding value. Item: GdT-GQWHCYTKFPHHYCLYGK (disulfide 5-14 (inferred); not fully specified (residues 8, 18, C-terminus)) [Compound ID 993]
Ans. 75%

Qu. Give its Human binding value. Item: GQWHCTSRFPHHYCLYG [Compound ID 898]
Ans. 5%

Qu. Give its Human binding value. Item: GKWHCYTKFPHHYCVYY [Compound ID 979]
Ans. 87%

Qu. Give its Human binding value. Item: GAWHCTTLFPHHYCLYG [Compound ID 908]
Ans. 20%
